As shown below, each of these compounds has a reported GI50 value.
test system: SF-539; assay: NCI tumour cell line growth inhibition, 48 h
Activity calls are given as the source filed them. No stated cut-off is given here; in the data, active = GI50 up to about 1.1 µM and inactive = higher.
assay_metric: GI50

O=C1/C(=C/c2ccc(Cl)cc2)N=C(c2ccccc2)N1c1nc2c(Cl)cc(Cl)cc2s1 ... 22.3 µM (inactive)
O=[N+]([O-])c1ccccc1/C=N/C12CC3CC(CC(C3)C1)C2 ... 80.2 µM (inactive)
CC(=O)OC(COc1ccc2c(c1)[n+]([O-])nc(N)[n+]2[O-])CN1CCCCC1 (stereo not given) ... 15.2 µM (inactive)
COc1ccc(N[S+]([O-])c2c(C)cc(C)cc2C)cc1 (stereo not given) ... 19.9 µM (inactive)
Brc1ccccc1C1SCc2nc3ccccc3n21 (stereo not given) ... 17.4 µM (inactive)

====

test system: M14; assay: NCI tumour cell line growth inhibition, 48 h
Activity calls are given as the source filed them. Cut-off read from the data, not from the text of the source: active = GI50 up to about 1.1 µM and inactive = higher.
assay_metric: GI50

O=C(O)c1ccc(SSc2ccc(C(=O)O)cn2)nc1 ... > 100 µM (inactive)
O=C(N/C=C1\C(=O)Oc2ccccc2C1=O)NC1CCCCC1 ... 50.2 µM (inactive)
CCOP(=O)(CC(=O)C1CC1)OCC ... > 100 µM (inactive)
CCOc1ccccc1/N=N/c1ccc2oc(=O)c(C(=O)Nc3cccc(C)c3)cc2c1 ... 18.7 µM (inactive)
CCOC(=O)C1=CNC(C(=O)OCC)C1c1cccn1-c1ccc(Cl)cc1[N+](=O)[O-] (stereo unspecified) ... 15.3 µM (inactive)
COc1cc(C(C)O)c[n+](CCC2CNc3ccccc32)c1 (stereo unspecified) ... > 100 µM (inactive)

====

system: SNB-19; test: NCI tumour cell line growth inhibition, 48 h
Where a name gives a salt, the structure may show the parent alone. Activity calls are given as the source filed them. Cut-off read from the data, not from the text of the source: active = GI50 up to about 1.1 µM and inactive = higher.
Outcomes: active, inactive

CCCCCCCCC(=O)N(C)C1C2CN3CCC(O2)C13 (stereo unspecified) ... inactive
NCCCNCc1c2ccccc2c(CNCCCN)c2ccccc12 ... inactive
CCOC(=O)c1nc2ccc(C(F)(F)F)cc2nc1Oc1ccc(OC)cc1 ... inactive
COC(=O)[C@H](Cc1ccccc1)NC(=O)c1ccc(CNC(=O)/C=C/c2csc(-c3ccccc3)n2)cc1 ... inactive
CCOC(=O)c1nc2ccc(C(F)(F)F)cc2nc1NCc1ccc(OC)c(OC)c1 ... inactive
O/N=C1/CCC/C1=C\c1ccccc1 ... inactive
CNC(=O)N1CN(c2ccccc2)C2(CCN(CCCC3(c4ccc(F)cc4)OCCO3)CC2)C1=O ... inactive
OC1(c2ccc(Cl)cc2)c2ccccc2C2=NCc3ccccc3CN21 (stereo unspecified) ... inactive
O=C(Nc1ccc(Cl)cc1)C(=O)C(C(=O)c1ccccc1-c1ccccc1)C1OC(=O)c2ccccc21 (stereo unspecified) ... inactive
COc1cc(/C=C2\CCC(CN(C)C)C2=O)ccc1OC(=O)c1ccccc1 (stereo unspecified) ... inactive
O=C(Nn1cc(F)c(=O)[nH]c1=O)C12CC3CC(CC(C3)C1)C2 ... inactive
COc1cc(C2S/C(=C/c3ccccc3)C(=O)N2c2cccc(NC(C)=O)c2)cc(OC)c1OC (stereo unspecified) ... inactive
CCCCCCCCCCCCCCCC(=O)OCC1OC(n2cc(F)c(=O)[nH]c2=O)C(N)C(O)C1O (stereo unspecified) ... inactive
c1ccc2c(c1)c1c3c(c4c(n32)=NCCN4)CCC1 ... inactive
Nc1nc2c3c(ncn3CC(O)CO2)n1 (stereo unspecified) ... inactive
Cc1ccc(C)c(NC(=O)C(=O)C(C(=O)c2ccc3ccccc3c2)C2OC(=O)c3ccccc32)c1 (stereo unspecified) ... inactive
COc1ccc(N2C(=O)C(=O)C3(CCCCC3)C2=O)c(OC)c1OC ... inactive
COc1cc2cc(C(=O)N3CC(CCl)c4c3cc(N)c3ccccc43)[nH]c2cc1OCCN(C)C (stereo unspecified) ... active
CC(C)(C)c1ccc(NS(=O)(=O)c2ccc(N)cc2)cc1 ... inactive
O=C(c1ccccc1)c1sc2c(=O)c(C(=O)c3ccccc3)c(C(=O)c3ccccc3)sc2c(=O)c1C(=O)c1ccccc1 ... inactive
O=c1[nH]c2ccc(CC(=S)N3CCN(c4ccccc4)CC3)cc2o1 ... inactive
CCN(CC)CCNc1ccc(CO)c2sc3ccccc3c(=O)c12 [HYCANTHONE MESYLATE] ... inactive
N#C/C(=C\c1ccc(O)c(O)c1)c1c(C#N)c(N)nn1-c1ccccc1 ... inactive
C/C(=N\Nc1ccccc1)c1sc(-c2nc(C)c(/C(C)=N/Nc3ccccc3)s2)nc1C ... inactive
c1ccc(C(Oc2noc3ccccc23)c2ccccc2)cc1 ... inactive
COc1cc2c(cc1OC)C(Cc1cc(Br)c(OC)c(OC)c1)=[N+](C)CC2 ... inactive
CN(C)c1ccc(/C=C/c2ccnc3ccccc23)cc1N ... inactive
CSc1ccccc1NC1=NCCO1 ... inactive
O=c1oc2ccc3ccccc3c2cc1-c1nc2ccc([N+](=O)[O-])cc2o1 ... inactive
Cc1c(Cl)nc(Nc2nc3ccccc3[nH]2)nc1Cl ... inactive
COc1cc2c(c(OC)c1)C(=O)O[C@H](C)CCCC/C=C/C2 ... inactive
CC(C)(C)c1ccc(-c2nc3ccc([N+](=O)[O-])cc3c(=O)o2)cc1 ... inactive
CC(=O)Nc1ccc2nncnc2c1 ... inactive
COc1cc(C2S/C(=C/c3ccccc3)C(=O)N2c2ccc([N+](=O)[O-])cc2)cc(OC)c1OC (stereo unspecified) ... inactive
C[C@@H]1CCC2[C@@H](C)C(=O)O[C@@H]3C4C[C@@H]1[C@@]23OO[C@@]4(C)O (stereo partly specified) ... inactive
CC(=O)O[C@H]1C[C@]2(C)C(CCC3O[C@@]32C)[C@@]2(CC(c3ccoc3)OC2O)[C@@H]1C (stereo partly specified) ... inactive
O=C(c1ccccc1)c1ccc2[nH]c(-c3c(Cl)c(Cl)c(Cl)c(Cl)c3C(=O)N/N=C/c3ccccc3)nc2c1 ... inactive
COC(=O)C1=C(C[S+]([O-])c2ccc([N+](=O)[O-])cc2[N+](=O)[O-])ON(C)C1c1ccccc1 (stereo unspecified) ... inactive
Nc1nc(-c2ccco2)cc(-c2ccco2)n1 ... inactive
COc1oc(C(=O)NC2CCCCC2)c(-c2ccc(Cl)cc2)c1S(=O)(=O)c1ccccc1 ... inactive
CCC(=O)C(CCN1CCC2(CCCc3ccccc32)CC1)(c1ccccc1)c1ccccc1 ... inactive
